# System Tested: human complement factor D (Homo sapiens, UniProt P00746)
# Construct: purchased R&D Systems 1824-SE
# Sequence (P00746 26-253): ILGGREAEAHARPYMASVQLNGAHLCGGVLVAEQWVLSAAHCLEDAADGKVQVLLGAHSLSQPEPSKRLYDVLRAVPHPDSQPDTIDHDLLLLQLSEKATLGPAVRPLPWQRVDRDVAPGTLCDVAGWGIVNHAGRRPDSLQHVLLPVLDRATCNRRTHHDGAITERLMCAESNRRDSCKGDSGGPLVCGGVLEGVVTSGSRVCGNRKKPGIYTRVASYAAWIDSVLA
# Assay Notes: In vitro enzyme inhibition of human complement factor D (Z-Lys-SBzl/DTNB, A405)
# Type: biochemical
I'd appreciate it if you could supply IC50 values for the items below.

Reported IC50 of "N#Cc1ccc2c(C(N)=O)nn(CC(=O)N(CC(=O)NCc3cccc(Cl)c3F)C3CC3)c2c1" : 100 to 1000 nM

Reported IC50 of "NC(=O)c1nn(CC(=O)N(CC(=O)NCc2cccc(Cl)c2F)C2CC2)c2ccc(F)cc12" : 100 to 1000 nM

Reported IC50 of CC(C)C(C)N(CC(=O)NCc1cccc(Cl)c1F)C(=O)Cn1nc(C(N)=O)c2ccccc21 (centres unmarked) : 100 to 1000 nM

Reported IC50 of "NC(=O)c1nn(CC(=O)N(CC(=O)Nc2cccc(Cl)n2)C2CC2)c2ccccc12" : 100 to 1000 nM

Reported IC50 of "CC(C)N(CC(=O)Nc1cccc(Cl)n1)C(=O)Cn1nc(C(N)=O)c2ccccc21" : 100 to 1000 nM

Reported IC50 of "NC(=O)c1nn(CC(=O)N(CC(=O)NCc2c(F)ccc(Cl)c2F)C2CC2)c2ccccc12" : 100 to 1000 nM

Reported IC50 of "NC(=O)c1ccc2c(C(N)=O)nn(CC(=O)N(CC(=O)NCc3cccc(Cl)c3F)C3CC3)c2c1" : < 100 nM

Reported IC50 of "NC(=O)c1nn(CC(=O)N(CC(=O)NCc2cccc(Cl)c2F)C2CC2)c2ccc(Cl)cc12" : 100 to 1000 nM

###

# System Tested: human complement factor D (Homo sapiens)
# Construct: purchased R&D Systems 1824-SE
# Assay Notes: In vitro enzyme inhibition of human complement factor D (Z-Lys-SBzl/DTNB, A405)
# Assay type: biochemical
# Experimental Parameters: biochemical assay, substrate Z-Lys-SBzl; read-out: CFD IC50
# Procedure: The ability of the compounds disclosed herein to inhibit human complement factor D inhibitory activity was quantified according to the 12-step protocol provided below. • 1. Prepare assay buffer: 50 mM Tris/HCl, pH 7.5, 1 M NaCl. • 2. […] For kinetic reading: Immediately start measuring absorbance (A405 nm) continuously and record data every 30 sec for 60 min. • 12. Data analysis • Inhibition activity of compound was evaluated by IC50. […]
pIC50: −log10 of the molar value.
I'd appreciate it if you could supply pIC50 values for the items below.

Item "CC(=O)c1nc(CC(=O)N(CC(=O)NCc2cccc(Cl)c2F)C2CC2)c2ccccn12" ; assay system human complement factor D (Homo sapiens); pIC50 reported as 5.00 to 6.00

Item CC(c1ccccc1)N(CC(=O)NCc1cccc(Cl)c1F)C(=O)Cn1nc(C(N)=O)c2ccccc21 (stereo not shown) ; assay system human complement factor D (Homo sapiens); pIC50 reported as 6.00 to 7.00

Item CCC(COC)N(CC(=O)NCc1cccc(Cl)c1F)C(=O)Cn1nc(C(N)=O)c2ccccc21 (stereo not shown) ; assay system human complement factor D (Homo sapiens); pIC50 reported as 5.00 to 6.00

Item "NC(=O)c1cc(C(F)(F)F)n(CC(=O)N(CC(=O)NCc2cccc(Cl)c2F)C2CC2)n1" ; assay system human complement factor D (Homo sapiens); pIC50 reported as < 5.00

Item "N#Cc1ccc2c(c1)c(C(N)=O)nn2CC(=O)N(CC(=O)NCc1cccc(Cl)c1F)C1CC1" ; assay system human complement factor D (Homo sapiens); pIC50 reported as 6.00 to 7.00

Item COC(=O)C(C)N(CC(=O)NCc1cccc(Cl)c1F)C(=O)Cn1nc(C(N)=O)c2ccccc21 (stereo not shown) ; assay system human complement factor D (Homo sapiens); pIC50 reported as 5.00 to 6.00

Item CC(CCF)N(CC(=O)NCc1cccc(Cl)c1F)C(=O)Cn1nc(C(N)=O)c2ccccc21 (stereo not shown) ; assay system human complement factor D (Homo sapiens); pIC50 reported as 6.00 to 7.00

Item "CN(CC(=O)Nc1cccc(Cl)n1)C(=O)Cn1nc(C(N)=O)c2ccccc21" ; assay system human complement factor D (Homo sapiens); pIC50 reported as 5.00 to 6.00

Item "NC(=O)c1nn(CC(=O)N(CC(=O)NCc2cccc(C3CC3)c2F)C2CC2)c2ccccc12" ; assay system human complement factor D (Homo sapiens); pIC50 reported as 5.00 to 6.00

Item "N#Cc1ccc(Cl)c(F)c1CNC(=O)CN(C(=O)Cn1nc(C(N)=O)c2ccccc21)C1CC1" ; assay system human complement factor D (Homo sapiens); pIC50 reported as 6.00 to 7.00

Item "CC(=O)NCCN(CC(=O)Nc1cccc(Cl)n1)C(=O)Cn1nc(C(N)=O)c2ccccc21" ; assay system human complement factor D (Homo sapiens); pIC50 reported as 5.00 to 6.00

Item "NC(=O)c1ccc2c(c1)c(C(N)=O)nn2CC(=O)N(CC(=O)NCc1cccc(Cl)c1F)C1CC1" ; assay system human complement factor D (Homo sapiens); pIC50 reported as 6.00 to 7.00

Item "NC(=O)c1cc(C(N)=O)n(CC(=O)N(CC(=O)NCc2cccc(Cl)c2F)C2CC2)n1" ; assay system human complement factor D (Homo sapiens); pIC50 reported as 5.00 to 6.00

Item "C[C@@H](C(=O)NCc1cccc(Cl)c1F)N(C)C(=O)Cn1nc(C(N)=O)c2ccccc21" ; assay system human complement factor D (Homo sapiens); pIC50 reported as 5.00 to 6.00

Item "CC(=O)c1nc(CC(=O)N(CC(=O)NCc2cccc(Cl)c2F)C2CC2)n2ccccc12" ; assay system human complement factor D (Homo sapiens); pIC50 reported as 6.00 to 7.00

Item CC1(C)CC(O)CC(NC(=O)CN(C(=O)Cn2nc(C(N)=O)c3ccccc32)C2CC2)C1 (stereo not shown) ; assay system human complement factor D (Homo sapiens); pIC50 reported as 5.00 to 6.00

Item "NC(=O)c1nn(CC(=O)N(CC(=O)NCc2cncc(Cl)c2)C2CC2)c2ccccc12" ; assay system human complement factor D (Homo sapiens); pIC50 reported as 5.00 to 6.00

Item "NC(=O)c1nn(CC(=O)N(CC(=O)NCc2cc(Cl)c3[nH]ncc3c2)C2CC2)c2ccccc12" ; assay system human complement factor D (Homo sapiens); pIC50 reported as 5.00 to 6.00

Item "NC(=O)c1nn(CC(=O)N(CC(=O)NCc2ccc(CO)c(Cl)c2F)C2CC2)c2ccccc12" ; assay system human complement factor D (Homo sapiens); pIC50 reported as < 5.00

Item "NC(=O)c1nn(CC(=O)N(CC(=O)NCc2cccc(C(F)(F)F)c2F)C2CC2)c2ccccc12" ; assay system human complement factor D (Homo sapiens); pIC50 reported as 5.00 to 6.00

Item "C[C@@H](C(=O)Nc1cccc(Cl)c1F)N(C)C(=O)Cn1nc(C(N)=O)c2ccccc21" ; assay system human complement factor D (Homo sapiens); pIC50 reported as 5.00 to 6.00

Item "NC(=O)c1nn(CC(=O)N(CC(=O)NCc2cccc(Cl)c2F)C2CC2)cc1Br" ; assay system human complement factor D (Homo sapiens); pIC50 reported as 5.00 to 6.00

Item NC(=O)c1nn(CC(=O)N(CC(=O)NCc2cccc(Cl)c2F)C(CC(=O)O)C(F)(F)F)c2ccccc12 (stereo not shown) ; assay system human complement factor D (Homo sapiens); pIC50 reported as 5.00 to 6.00

Item "CNCCN(CC(=O)Nc1cccc(Cl)n1)C(=O)Cn1nc(C(N)=O)c2ccccc21" ; assay system human complement factor D (Homo sapiens); pIC50 reported as 5.00 to 6.00

Item "NCCN(CC(=O)NCc1cccc(Cl)c1F)C(=O)Cn1nc(C(N)=O)c2ccccc21" ; assay system human complement factor D (Homo sapiens); pIC50 reported as 6.00 to 7.00

Item "NC(=O)c1nn(CC(=O)N(CC(=O)NCc2cccc(Cl)c2)C2CC2)c2ccccc12" ; assay system human complement factor D (Homo sapiens); pIC50 reported as 6.00 to 7.00

Item "COc1ccc(CNC(=O)CN(C(=O)Cn2nc(C(N)=O)c3ccccc32)C2CC2)cc1Cl" ; assay system human complement factor D (Homo sapiens); pIC50 reported as 5.00 to 6.00

Item "NC(=O)c1nn(CC(=O)N(CC(=O)NCc2cccc(Cl)c2F)C2CC2)c2c(C(F)(F)F)cccc12" ; assay system human complement factor D (Homo sapiens); pIC50 reported as > 7.00

Item CCOC(=O)CC(N(CC(=O)NCc1cccc(Cl)c1F)C(=O)Cn1nc(C(N)=O)c2ccccc21)C(F)(F)F (stereo not shown) ; assay system human complement factor D (Homo sapiens); pIC50 reported as 5.00 to 6.00

Item "CC1(C)C[C@H](O)C[C@@H](NC(=O)CN(C(=O)Cn2nc(C(N)=O)c3ccccc32)C2CC2)C1" ; assay system human complement factor D (Homo sapiens); pIC50 reported as 5.00 to 6.00

Item "NC(=O)c1nc(CC(=O)N(CC(=O)NCc2cccc(Cl)c2F)C2CC2)c2ccccn12" ; assay system human complement factor D (Homo sapiens); pIC50 reported as 6.00 to 7.00
